Tested on: CASKI
Experiment: Primary qHTS to identify gynecologic anti-cancer compounds using libraries of approved drugs and bioactive compounds (AID 1345084); also: % is scaled to controls: 0 for no effect and ±100 for the full control effect; nearly all actives have a fitted effect of over 55% in size
Details: Gynecologic cancer cell panel viability, ATPlite luminescence, 48 h; series mostly up to 57.5 µM
Records with an inconclusive call do not appear. Calls of active or inactive are those of the source. Calls follow the shape of the dose curve; as a rule, active = well fitted cell-killing curve with a large enough effect; inconclusive = small, poorly fitted or top-dose-only effect, or effect the other way; inactive = flat fitted curve, though single readings scatter.

molecule: Oc1ccc(CC2NCCc3cc(O)c(O)cc32)cc1 (stereo not drawn)
targetDesc: CASKI
activity change, negative = cytotoxicity: inactive

molecule: C[C@@H]1O[C@@H](O[C@H]2[C@H](O[C@H]3[C@H](O[C@H]4CC[C@@]5(C)C(CC[C@]6(C)C5CC=C5[C@@H]7CC(C)(C)CC(=O)[C@]7(C)CC[C@]56C)[C@@]4(C)CO)O[C@H](C(=O)O)[C@@H](O)[C@@H]3O)O[C@H](CO)[C@H](O)[C@@H]2O)[C@H](O)[C@H](O)[C@H]1O (stereo partly drawn)
targetDesc: CASKI
activity change, negative = cytotoxicity: 5.16% [at 11.6 µM] (inactive)

molecule: CC1=C2C[C@H]3OC(=O)[C@H](O)[C@@]4(O)[C@@H](C)[C@@H](O)[C@H](O)C([C@@]2(C)[C@H](O)[C@@H](O)C1)[C@@]34C (stereo partly drawn)
targetDesc: CASKI
activity change, negative = cytotoxicity: inactive

molecule: C/C(=C\CCC(C)C1CC(O)C2(C)C3CCC4C(C)(C)C(OC5OCC(O)C(O)C5O)CCC45CC35CC(O)C12C)C(=O)O (stereo not drawn)
targetDesc: CASKI
activity change, negative = cytotoxicity: inactive

molecule: C[C@@H]1O[C@@H](OC2C(O[C@H]3[C@H](O[C@H]4CC[C@@]5(C)C(CC[C@]6(C)C5CC=C5C7CC(C)(C)CC(O)[C@]7(C)CC[C@]56C)C4(C)C)O[C@H](C(=O)O)[C@@H](O)[C@@H]3O)OC(CO)C(O)C2O)[C@H](O)[C@H](O)[C@H]1O (stereo partly drawn)
targetDesc: CASKI
activity change, negative = cytotoxicity: 13.1% [at 11.6 µM] (inactive)

molecule: C=Cc1ccc(O[C@@H]2O[C@H](CO[C@@H]3O[C@@H](C)[C@H](O)[C@@H](O)[C@H]3O)[C@@H](O)[C@H](O)[C@H]2O)cc1
targetDesc: CASKI
activity change, negative = cytotoxicity: inactive

molecule: Cc1occc(=O)c1O[C@@H]1O[C@H](COC(=O)CC(C)(O)CC(=O)O)[C@@H](O)[C@H](O)[C@H]1O (stereo partly drawn)
targetDesc: CASKI
activity change, negative = cytotoxicity: inactive

molecule: COc1cc(C)c(C(=O)O[C@@H]2[C@H](O)[C@@H](CO)O[C@H]2n2ccc(=O)[nH]c2=O)c(OC)c1
targetDesc: CASKI
activity change, negative = cytotoxicity: inactive

molecule: CCOC(=O)C1=C(N)Oc2ccc(Cl)cc2C1C(C#N)C(=O)OCC (stereo not drawn)
targetDesc: CASKI
activity change, negative = cytotoxicity: inactive

molecule: C/C=C/C=C/C=C/C(=O)N(C)C(C(=O)NC(C)C(=O)N1CCCC1C(N)=O)C(C)C (stereo not drawn)
targetDesc: CASKI
activity change, negative = cytotoxicity: inactive

molecule: CC(CCO)CCC1C2(C)CCCC(C)(C)C2CC[C@@]1(C)O (stereo partly drawn)
targetDesc: CASKI
activity change, negative = cytotoxicity: inactive

molecule: COc1ccc(/C=C/C(=O)O[C@@H]2[C@@H](O)[C@@H](O)[C@H](O[C@H]3[C@@H]4C=CO[C@@H](O[C@@H]5O[C@H](CO)[C@@H](O)[C@H](O)[C@H]5O)[C@@H]4[C@@]4(CO)O[C@@H]34)O[C@H]2C)cc1
targetDesc: CASKI
activity change, negative = cytotoxicity: inactive

molecule: CC1(C)[C@H]2C[C@H](C/C=C\CCCC(=O)O)[C@@H](NC(=O)c3csc4ccc(O)cc34)[C@@H]1C2
targetDesc: CASKI
activity change, negative = cytotoxicity: inactive
